Reported pIC50 values follow for various compounds
molecular target: PI 3-kinase gamma (Homo sapiens, UniProt P48736); assay: TR-FRET Adapta assay, assay E; format: biochemical; settings: read-out: Assay E PI3Kγ IC50
Sequence (P48736 whole entry): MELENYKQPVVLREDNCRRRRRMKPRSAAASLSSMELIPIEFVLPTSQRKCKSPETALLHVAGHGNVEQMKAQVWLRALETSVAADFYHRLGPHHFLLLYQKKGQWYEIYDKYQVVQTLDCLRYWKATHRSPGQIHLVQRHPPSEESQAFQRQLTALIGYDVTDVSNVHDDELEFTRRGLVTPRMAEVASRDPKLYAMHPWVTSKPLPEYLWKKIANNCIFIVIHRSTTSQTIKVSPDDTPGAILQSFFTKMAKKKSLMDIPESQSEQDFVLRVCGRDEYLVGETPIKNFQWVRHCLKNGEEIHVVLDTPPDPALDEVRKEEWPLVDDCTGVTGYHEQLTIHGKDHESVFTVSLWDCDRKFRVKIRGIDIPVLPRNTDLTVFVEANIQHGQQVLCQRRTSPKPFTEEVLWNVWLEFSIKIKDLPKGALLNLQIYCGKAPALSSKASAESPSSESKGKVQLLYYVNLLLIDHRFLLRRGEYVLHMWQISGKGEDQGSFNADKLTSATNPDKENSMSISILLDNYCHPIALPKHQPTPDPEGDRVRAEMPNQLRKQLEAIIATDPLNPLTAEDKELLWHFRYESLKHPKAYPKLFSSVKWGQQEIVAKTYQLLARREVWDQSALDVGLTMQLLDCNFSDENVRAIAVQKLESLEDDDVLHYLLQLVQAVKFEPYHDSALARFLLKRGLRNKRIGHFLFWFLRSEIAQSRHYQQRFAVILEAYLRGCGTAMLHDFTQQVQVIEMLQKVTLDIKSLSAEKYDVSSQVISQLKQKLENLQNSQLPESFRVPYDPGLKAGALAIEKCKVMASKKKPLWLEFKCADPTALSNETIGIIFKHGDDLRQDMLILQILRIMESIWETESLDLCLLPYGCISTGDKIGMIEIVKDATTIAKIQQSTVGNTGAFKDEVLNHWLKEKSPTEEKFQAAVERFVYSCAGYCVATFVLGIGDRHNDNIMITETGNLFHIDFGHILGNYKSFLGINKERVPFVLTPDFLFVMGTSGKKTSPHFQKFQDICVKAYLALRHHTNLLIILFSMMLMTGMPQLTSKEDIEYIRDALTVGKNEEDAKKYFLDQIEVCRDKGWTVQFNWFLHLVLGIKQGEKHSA
Scale: pIC50 equals -log10([C]), with [C] in mol/L.

Compound	Reported value
Cc1cc(-c2nc(-c3cc(S(=O)(=O)NCCC(C)(O)C(F)(F)F)ccc3C)cnc2N)ccn1 (centres unmarked) [Example 129.13]	7.55

Okay, next one:
Request: Give pIC50 for this entry on PI 3-kinase gamma (Homo sapiens, UniProt P48736): Cc1ccc(S(=O)(=O)NC[C@@](C)(O)C(F)(F)F)cc1-c1cnc(N)c(-n2cncn2)n1 [Example 127.22]
Response: 7.40

* * *

biological target: PI 3-kinase delta (Homo sapiens, UniProt O00329); assay: Cellular assay J1, p-Akt (S473) in Rat-1 cells, Surefire format; format: cell-based; conditions: non-asterisked data: version J1 (Surefire format), Rat-1 cells; read-out: Assay J PI3Kδ IC50
Sequence (O00329 whole entry): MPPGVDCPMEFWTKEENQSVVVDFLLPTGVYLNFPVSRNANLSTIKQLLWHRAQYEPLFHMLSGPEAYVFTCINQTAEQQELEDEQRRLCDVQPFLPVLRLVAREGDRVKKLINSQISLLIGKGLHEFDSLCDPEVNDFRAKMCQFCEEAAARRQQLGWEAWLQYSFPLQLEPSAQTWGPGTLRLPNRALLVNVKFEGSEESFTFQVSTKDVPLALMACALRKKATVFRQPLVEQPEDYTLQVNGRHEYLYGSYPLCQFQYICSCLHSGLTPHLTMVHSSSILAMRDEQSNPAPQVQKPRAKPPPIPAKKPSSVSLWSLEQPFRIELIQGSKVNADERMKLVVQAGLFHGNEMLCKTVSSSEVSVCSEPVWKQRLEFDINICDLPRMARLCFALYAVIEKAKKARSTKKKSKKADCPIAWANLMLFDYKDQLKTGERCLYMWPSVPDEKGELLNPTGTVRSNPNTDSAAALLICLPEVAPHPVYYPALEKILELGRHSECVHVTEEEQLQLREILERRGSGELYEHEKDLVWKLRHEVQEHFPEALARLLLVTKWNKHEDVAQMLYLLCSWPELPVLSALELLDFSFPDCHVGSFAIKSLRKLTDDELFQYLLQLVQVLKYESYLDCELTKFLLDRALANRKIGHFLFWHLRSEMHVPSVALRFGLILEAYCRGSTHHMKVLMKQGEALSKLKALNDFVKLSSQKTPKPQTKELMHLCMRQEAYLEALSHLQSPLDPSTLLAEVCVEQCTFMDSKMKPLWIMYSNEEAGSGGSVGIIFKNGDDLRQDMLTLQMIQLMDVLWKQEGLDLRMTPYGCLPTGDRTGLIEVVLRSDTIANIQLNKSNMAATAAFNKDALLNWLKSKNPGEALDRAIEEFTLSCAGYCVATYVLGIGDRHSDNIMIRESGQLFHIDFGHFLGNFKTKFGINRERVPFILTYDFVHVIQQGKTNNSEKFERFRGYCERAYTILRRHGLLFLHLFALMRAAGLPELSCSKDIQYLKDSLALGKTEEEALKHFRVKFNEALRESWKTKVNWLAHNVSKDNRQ
Sequence (Q63787 whole entry partner): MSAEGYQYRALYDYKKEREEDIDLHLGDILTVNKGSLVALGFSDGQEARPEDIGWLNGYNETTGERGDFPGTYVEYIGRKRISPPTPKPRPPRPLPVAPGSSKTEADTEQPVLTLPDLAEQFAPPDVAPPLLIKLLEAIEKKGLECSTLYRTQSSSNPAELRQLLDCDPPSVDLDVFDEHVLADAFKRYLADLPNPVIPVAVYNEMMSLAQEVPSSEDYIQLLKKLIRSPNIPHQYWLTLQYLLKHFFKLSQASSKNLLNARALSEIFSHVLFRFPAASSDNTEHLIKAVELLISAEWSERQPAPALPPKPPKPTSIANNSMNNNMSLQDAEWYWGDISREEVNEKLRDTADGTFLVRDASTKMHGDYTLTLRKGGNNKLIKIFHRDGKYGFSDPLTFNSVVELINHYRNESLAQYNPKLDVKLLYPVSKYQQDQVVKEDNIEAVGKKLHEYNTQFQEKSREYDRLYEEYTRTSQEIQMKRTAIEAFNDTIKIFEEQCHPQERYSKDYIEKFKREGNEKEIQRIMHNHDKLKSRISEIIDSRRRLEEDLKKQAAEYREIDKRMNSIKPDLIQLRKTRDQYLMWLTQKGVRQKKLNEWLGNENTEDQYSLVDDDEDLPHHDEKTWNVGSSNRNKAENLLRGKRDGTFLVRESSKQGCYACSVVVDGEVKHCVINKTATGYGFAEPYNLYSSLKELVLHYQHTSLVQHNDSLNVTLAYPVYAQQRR
Catalogue of pIC50 readings, one per entry.
Friendly reminder that pIC50 comes from taking -log10 of the concentration in mol/L.

Structure smiles string	pIC50
Cc1ncc(-c2nc(-c3cc(S(=O)(=O)NC4CCC(F)(F)CC4)ccc3C)cnc2N)s1	5.91
Cc1cc(-c2nc(-c3cc(S(=O)(=O)NCCCCCO)ccc3C)cnc2N)ccn1	5.16
Cc1ccc(S(=O)(=O)NCCC(C)(C)O)cc1-c1cnc(N)c(-n2cnc(C3CC3)n2)n1	6.12
Cc1ncn(-c2nc(-c3cc(S(=O)(=O)NCCC(C)(C)O)ccc3C)cnc2N)n1	5.84
CCn1cc(-c2nc(-c3cc(S(=O)(=O)NCC(C)(C)O)ccc3C)cnc2N)nn1	5.39
Cc1ccc(S(=O)(=O)NCCC(C)(C)O)cc1-c1cnc(N)c(-n2cccn2)n1	6.01

Request: Report pIC50 for Cc1ccc(S(=O)(=O)N[C@H]2CC[C@H](O)CC2)cc1-c1cnc(N)c(-n2cccn2)n1
Response: 6.07

Request: Given Cc1ccc(S(=O)(=O)NCCC(C)(C)O)cc1-c1cnc(N)c(-c2cnc(Cl)cc2C)n1 , respond with its pIC50.
Response: 5.37

* * *

biological target: PI 3-kinase beta (Homo sapiens, UniProt P42338); experiment: Cellular assay I1, p-Akt (S473) in Rat-1 cells, Surefire format; format: cell-based; details: non-asterisked data: version I1 (Surefire format), Rat-1 cells; read-out: Assay I PI3Kβ IC50
Sequence (P42338 whole entry): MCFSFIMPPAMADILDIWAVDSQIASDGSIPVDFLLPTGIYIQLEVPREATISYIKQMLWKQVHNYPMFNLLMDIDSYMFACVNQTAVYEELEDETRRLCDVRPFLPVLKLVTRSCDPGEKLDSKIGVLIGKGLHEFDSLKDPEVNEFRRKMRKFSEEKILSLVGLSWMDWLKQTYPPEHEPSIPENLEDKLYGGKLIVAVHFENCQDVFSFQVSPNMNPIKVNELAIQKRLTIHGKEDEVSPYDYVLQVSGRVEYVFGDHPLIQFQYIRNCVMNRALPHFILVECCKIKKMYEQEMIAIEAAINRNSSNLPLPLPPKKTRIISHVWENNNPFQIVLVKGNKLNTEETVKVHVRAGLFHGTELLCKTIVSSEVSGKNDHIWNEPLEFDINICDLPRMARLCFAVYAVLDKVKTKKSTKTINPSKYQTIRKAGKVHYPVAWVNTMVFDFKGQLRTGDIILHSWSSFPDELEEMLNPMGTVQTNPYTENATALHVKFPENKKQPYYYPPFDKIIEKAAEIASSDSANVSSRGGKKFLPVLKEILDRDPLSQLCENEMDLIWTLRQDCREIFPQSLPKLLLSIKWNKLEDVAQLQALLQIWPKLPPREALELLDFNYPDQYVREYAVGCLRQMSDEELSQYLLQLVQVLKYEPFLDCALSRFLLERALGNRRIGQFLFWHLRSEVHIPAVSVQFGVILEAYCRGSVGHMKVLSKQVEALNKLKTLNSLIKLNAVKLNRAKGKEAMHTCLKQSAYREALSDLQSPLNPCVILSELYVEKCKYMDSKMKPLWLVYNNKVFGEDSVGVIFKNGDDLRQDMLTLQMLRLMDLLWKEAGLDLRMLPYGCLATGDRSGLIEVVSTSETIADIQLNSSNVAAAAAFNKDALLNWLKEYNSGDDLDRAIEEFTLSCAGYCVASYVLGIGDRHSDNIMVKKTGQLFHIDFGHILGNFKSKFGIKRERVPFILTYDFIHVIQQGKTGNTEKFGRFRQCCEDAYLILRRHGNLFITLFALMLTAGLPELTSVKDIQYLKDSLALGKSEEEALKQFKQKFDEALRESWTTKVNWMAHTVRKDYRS
Sequence (Q63787 whole entry partner): as the sequence (Q63787 whole entry partner) above
Recorded endpoint: IC50 (µM)
Number only, in µM; omit the unit.

Example cases with answers are listed next.
Compound	Study target	IC50 (µM)
Cc1cc(-c2nc(-c3cc(S(=O)(=O)N[C@H]4CC[C@H](O)CC4)ccc3C)cnc2N)ccn1 [Example 135]	PI 3-kinase beta (Homo sapiens, UniProt P42338)	8.75
Cc1ccc(S(=O)(=O)N[C@H]2CC[C@H](O)CC2)cc1-c1cnc(N)c(-n2cccn2)n1 [Example 103]	PI 3-kinase beta (Homo sapiens, UniProt P42338)	3.25

Now consider the entry below.
Request: Provide IC50, recorded with PI 3-kinase beta (Homo sapiens, UniProt P42338), of Cc1ccc(S(=O)(=O)NCCC(C)(C)O)cc1-c1cnc(N)c(-c2ccc(N3CCCC3)nc2)n1 [Example 119.17]
Response: 6.17

* * *

The entries below are paired with their reported pIC50.
molecular target: PI 3-kinase delta (Homo sapiens); assay: Cellular assay J1, p-Akt (S473) in Rat-1 cells, Surefire format; type: cell-based; conditions: non-asterisked data: version J1 (Surefire format), Rat-1 cells; read-out: Assay J PI3Kδ IC50
Keep it numeric: pIC50 is minus log10 of the concentration in mol/L.

Check out these entries, answers already filled in.
Compound	Study target	Reported value
CC(C)(O)CNS(=O)(=O)c1cccc(-c2cnc(N)c(-n3cncn3)n2)c1	PI 3-kinase delta (Homo sapiens)	5.44
Cc1ccc(S(=O)(=O)NC[C@@H]2COCCN2C)cc1-c1cnc(N)c(-c2cn(C)nc2C)n1 (single isomer, unassigned)	PI 3-kinase delta (Homo sapiens)	5.68
Cc1ccc(S(=O)(=O)N[C@H]2CC[C@H](O)CC2)cc1-c1cnc(N)c(-c2cnn(C)c2)n1	PI 3-kinase delta (Homo sapiens)	5.61
Cc1ccc(S(=O)(=O)NCCC(C)(C)O)cc1-c1cnc(N)c(-c2nc(C3CC3)no2)n1	PI 3-kinase delta (Homo sapiens)	6.00
Cc1ccc(S(=O)(=O)NCCC(C)(C)O)cc1-c1cnc(N)c(-c2ccc(F)nc2)n1	PI 3-kinase delta (Homo sapiens)	5.89

Request: Please give the documented pIC50 of Cc1cc(-c2nc(-c3cc(S(=O)(=O)NCCC(C)(O)C(F)(F)F)ccc3C)cnc2N)ccn1 (stereo not drawn)
Response: 5.23

Request: Indicate the recorded pIC50 value for this compound: COc1ccncc1-c1nc(-c2cc(S(=O)(=O)NCCC(C)(C)O)ccc2C)cnc1N
Response: 5.62

Request: # return recorded pIC50 for input Cc1ccc(S(=O)(=O)NCCC(C)(C)O)cc1-c1cnc(N)c(-c2cnc(C3CC3)s2)n1
Response: 6.02

Request: Name the recorded pIC50 of the compound listed here: Cc1ccc(S(=O)(=O)N[C@H]2CC[C@H](O)CC2)cc1-c1cnc(N)c(-c2cccnc2)n1
Response: 5.33

Request: Give the reported value of pIC50 for this record: Cc1ccc(S(=O)(=O)NC2CC3(CC(O)C3)C2)cc1-c1cnc(N)c(-c2cn(C)nc2C)n1 (single isomer, unassigned) [Example 9b]
Response: 5.12

Request: Could you please provide reported pIC50 for CCCn1cc(-c2nc(-c3cc(S(=O)(=O)NCCC(C)(C)O)ccc3C)cnc2N)cn1 ? Thanks!
Response: 5.92
